# measured on: 5-hydroxytryptamine receptor 1A (Homo sapiens)
# Sequence (P08908 whole entry): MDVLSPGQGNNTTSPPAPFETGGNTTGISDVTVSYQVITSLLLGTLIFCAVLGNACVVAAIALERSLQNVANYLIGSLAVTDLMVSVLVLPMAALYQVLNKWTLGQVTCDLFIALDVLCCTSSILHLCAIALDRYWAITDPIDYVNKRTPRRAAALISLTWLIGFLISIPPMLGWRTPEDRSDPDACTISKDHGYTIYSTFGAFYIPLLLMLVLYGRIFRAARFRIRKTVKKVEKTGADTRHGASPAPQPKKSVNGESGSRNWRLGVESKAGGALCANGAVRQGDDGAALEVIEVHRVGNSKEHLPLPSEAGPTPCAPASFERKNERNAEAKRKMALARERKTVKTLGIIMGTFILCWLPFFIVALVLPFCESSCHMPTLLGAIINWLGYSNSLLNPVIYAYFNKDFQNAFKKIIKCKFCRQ
# experiment description: Agonist activity at human 5HT1A receptor (unknown origin) expressed in CHO cells by [35S]GTPgammaS binding assay
observable: pEC50
Answers are plain numbers, as −log10 of the molar value.

Incoming: Report measured pEC50; entry is `O=C(NCCCCN1CCN(c2ccccc2)CC1)c1ccc2ncccc2c1`
Outgoing: 5.74
